- measurementTarget: Human immunodeficiency virus type 1 integrase (Human immunodeficiency virus 1, UniProt Q7ZJM1)
- Sequence (Q7ZJM1 whole entry): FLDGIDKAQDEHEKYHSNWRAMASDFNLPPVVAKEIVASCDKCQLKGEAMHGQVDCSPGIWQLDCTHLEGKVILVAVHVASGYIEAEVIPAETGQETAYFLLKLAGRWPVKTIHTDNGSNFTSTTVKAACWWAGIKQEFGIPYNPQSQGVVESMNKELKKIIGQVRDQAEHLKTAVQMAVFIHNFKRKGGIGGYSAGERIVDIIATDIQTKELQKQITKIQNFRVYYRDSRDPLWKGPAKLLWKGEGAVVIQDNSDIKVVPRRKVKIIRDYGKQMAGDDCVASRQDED
- experimentSummary: Inhibition of subunit exchanging activity of His and Flag-tagged HIV-1 integrase expressed in Escherichia coli BL21(DE3) cells after 2.5 hrs by HTRF assay
pIC50: −log10 of the molar value.
recordedEndpoint: pIC50

- molecularString: "CC(=O)c1c(O)c2c(=O)oc3ccc(C)cc3c2oc1=O"
  recordedEndpoint: "pIC50"
  operator: "="
  valueMeasured: 4.25
- molecularString: "Cc1cc(=O)c2c(=O)oc3c4ccccc4oc(=O)c3c2o1"
  recordedEndpoint: "pIC50"
  operator: "<"
  valueMeasured: 4.00
- molecularString: "CC(=O)CC(=O)c1c(O)c2c(=O)oc3c4ccccc4ccc3c2oc1=O"
  recordedEndpoint: "pIC50"
  operator: "="
  valueMeasured: 4.07
- molecularString: "O=c1cc(O)c2c(=O)oc3c4ccccc4ccc3c2o1"
  recordedEndpoint: "pIC50"
  operator: "="
  valueMeasured: 4.24
- molecularString: "O=C(c1ccccc1)c1ccc2c(c1)N=CCC(c1c(O)c3c(=O)oc4ccccc4c3oc1=O)=N2"
  recordedEndpoint: "pIC50"
  operator: "<"
  valueMeasured: 4.00
- molecularString: "Cc1ccc2oc(=O)c3c(O)cc(=O)oc3c2c1"
  recordedEndpoint: "pIC50"
  operator: "="
  valueMeasured: 4.16

###

- measurementTarget: Human immunodeficiency virus type 1 integrase (Human immunodeficiency virus 1, UniProt Q7ZJM1)
- experimentSummary: Inhibition of LEDGF/p75-dependent full length HIV-1 integrase expressed in Escherichia coli BL21(DE3) cells preincubated for 1 hr further incubated for 90 mins with biotin-labeled donor DNA and target DNA by HTRF assay
pIC50: −log10 of the molar value.
# pIC50 values compiled below
recordedEndpoint: pIC50

- molecularString: "CC(=O)c1c(O)c2c(=O)oc3ccccc3c2oc1=O"
  operator: "="
  valueMeasured: 5.07
- molecularString: "CC(=O)CC(=O)c1c(O)c2c(=O)oc3c4ccccc4ccc3c2oc1=O"
  operator: "="
  valueMeasured: 4.96
- molecularString: "Cc1ccc2oc(=O)c3cc(C4=Nc5ccc(C(=O)c6ccccc6)cc5N=CC4)c(=O)oc3c2c1"
  operator: "<"
  valueMeasured: 4.00
- molecularString: "CC(=O)CC(=O)c1c(O)c2c(=O)oc3ccc4ccccc4c3c2oc1=O"
  operator: "="
  valueMeasured: 4.32
- molecularString: "Cc1cc(=O)c2c(=O)oc3c4ccccc4oc(=O)c3c2o1"
  operator: "="
  valueMeasured: 4.85

###

- measurementTarget: Human immunodeficiency virus type 1 integrase (Human immunodeficiency virus 1)
- experimentSummary: Inhibition of LEDGF/p75-dependent full length HIV-1 integrase expressed in Escherichia coli BL21(DE3) cells preincubated for 1 hr further incubated for 90 mins with biotin-labeled donor DNA and target DNA by HTRF assay
pIC50: −log10 of the molar value.
# pIC50 values compiled below
recordedEndpoint: pIC50

- molecularString: "CC(=O)c1c(O)c2c(=O)oc3cc(C)ccc3c2oc1=O"
  recordedEndpoint: "pIC50"
  valueMeasured: 4.65
- molecularString: "O=C(c1ccccc1)c1ccc2c(c1)N=CCC(c1c(O)c3c(=O)oc4ccccc4c3oc1=O)=N2"
  recordedEndpoint: "pIC50"
  valueMeasured: 4.70
- molecularString: "Cc1cccc2c1oc(=O)c1c(O)cc(=O)oc12"
  recordedEndpoint: "pIC50"
  valueMeasured: 4.62
- molecularString: "Cc1ccc2c(c1)oc(=O)c1c(O)cc(=O)oc12"
  recordedEndpoint: "pIC50"
  valueMeasured: 4.38
- molecularString: "O=c1cc(O)c2c(=O)oc3ccc4ccccc4c3c2o1"
  recordedEndpoint: "pIC50"
  valueMeasured: 4.67
